// each record: one item and its IC50 for Mushroom tyrosinase (Agaricus bisporus, UniProt O42713+Q00024+C7FF04+C7FF05)

The cases that follow already have their IC50 on record.
C#CCOC1O[C@H](COCc2ccccc2)[C@@H](OCc2ccccc2)[C@H](OCc2ccccc2)[C@H]1OCc1ccccc1 (stereo partly drawn)
> 500 µM
C#CCCCOC1O[C@H](CO)[C@@H](OCc2ccccc2)[C@H](OCc2ccccc2)[C@H]1OCc1ccccc1 (stereo partly drawn)
> 500 µM
CC#CCOC[C@H]1OC(OCc2ccccc2)[C@H](OCc2ccccc2)[C@@H](OCc2ccccc2)[C@@H]1OCc1ccccc1 (stereo partly drawn)
> 500 µM
CC#CCOC1O[C@@H]2CO[C@@H](c3ccccc3)O[C@H]2[C@H](O)[C@H]1O (stereo partly drawn)
> 500 µM
C#CCOC[C@H]1OC(OCC#C)[C@H](OCc2ccccc2)[C@@H](OCc2ccccc2)[C@@H]1OCc1ccccc1 (stereo partly drawn)
> 500 µM
CC#CCOC1O[C@H](COC)[C@@H](OCc2ccccc2)[C@H](OCc2ccccc2)[C@H]1OCc1ccccc1 (stereo partly drawn)
45.4 µM
C#CCO[C@H]1O[C@@H]2CO[C@@H](c3ccccc3)O[C@H]2[C@H](OCc2ccccc2)[C@H]1OCc1ccccc1
431 µM

**Q:** I would be grateful if you could share the reported IC50 for OC[C@H]1OC(OCc2ccccc2)[C@H](OCc2ccccc2)[C@@H](OCc2ccccc2)[C@@H]1OCc1ccccc1 (stereo partly drawn) .
**A:** > 500 µM

---

// reported IC50 per item
# TESTED ON: Mushroom tyrosinase (Agaricus bisporus, UniProt O42713+Q00024+C7FF04+C7FF05)

CO[C@H]1O[C@H](COCc2ccccc2)[C@@H](OCc2ccccc2)[C@H](OCc2ccccc2)[C@H]1OCc1ccccc1
> 500 µM
C#CCOC[C@H]1OC(OCC#CC)[C@H](OCc2ccccc2)[C@@H](OCc2ccccc2)[C@@H]1OCc1ccccc1 (stereo partly specified)
288 µM
C#CCCOC1O[C@H](COC)[C@@H](OCc2ccccc2)[C@H](OCc2ccccc2)[C@H]1OCc1ccccc1 (stereo partly specified)
> 500 µM
C#CCOC1O[C@H](CO)[C@@H](OCc2ccccc2)[C@H](OCc2ccccc2)[C@H]1OCc1ccccc1 (stereo partly specified)
> 500 µM
CC#CCOC[C@H]1OC(OCC#CC)[C@H](OCc2ccccc2)[C@@H](OCc2ccccc2)[C@@H]1OCc1ccccc1 (stereo partly specified)
> 500 µM
C#CCCOC1O[C@H](COCc2ccccc2)[C@@H](OCc2ccccc2)[C@H](OCc2ccccc2)[C@H]1OCc1ccccc1 (stereo partly specified)
34.3 µM
CC#CCOC[C@H]1OC(OC)[C@H](OCc2ccccc2)[C@@H](OCc2ccccc2)[C@@H]1OCc1ccccc1 (stereo partly specified)
> 500 µM
C#CCOC[C@H]1O[C@H](OC)[C@H](OCc2ccccc2)[C@@H](OCc2ccccc2)[C@@H]1OCc1ccccc1
> 500 µM
C#CCCOC1O[C@H](COC(C)=O)[C@@H](OCc2ccccc2)[C@H](OCc2ccccc2)[C@H]1OCc1ccccc1 (stereo partly specified)
> 500 µM
C#CCOC1O[C@H](COCC#CC)[C@@H](OCc2ccccc2)[C@H](OCc2ccccc2)[C@H]1OCc1ccccc1 (stereo partly specified)
> 500 µM

**Q:** Which value of IC50 has been reported for C#CCOC1O[C@@H]2CO[C@@H](c3ccccc3)O[C@H]2[C@H](O)[C@H]1O (stereo partly specified) in the records?
**A:** > 500 µM

**Q:** Need IC50, item "CO[C@H]1O[C@H](COC(C)=O)[C@@H](OCc2ccccc2)[C@H](OCc2ccccc2)[C@H]1OCc1ccccc1"
**A:** > 500 µM

**Q:** IC50 for C#CCCCOC1O[C@H](COCc2ccccc2)[C@@H](OCc2ccccc2)[C@H](OCc2ccccc2)[C@H]1OCc1ccccc1 (stereo partly specified) ?
**A:** > 500 µM

**Q:** What does the record list as IC50 for C#CCCOC1O[C@H](CO)[C@@H](OCc2ccccc2)[C@H](OCc2ccccc2)[C@H]1OCc1ccccc1 (stereo partly specified) ?
**A:** > 500 µM

**Q:** Which IC50 value belongs to CC#CCOC1O[C@H](COCc2ccccc2)[C@@H](OCc2ccccc2)[C@H](OCc2ccccc2)[C@H]1OCc1ccccc1 (stereo partly specified) ?
**A:** 70.7 µM

**Q:** Quick check: IC50 of C#CCOC1O[C@@H]2CO[C@@H](c3ccccc3)O[C@H]2[C@H](OCc2ccccc2)[C@H]1OCc1ccccc1 (stereo partly specified) ?
**A:** 383 µM

---

Form: system (Mushroom tyrosinase (Agaricus bisporus, UniProt O42713+Q00024+C7FF04+C7FF05)), quantity (IC50), values below.

Illustrative cases are given below, each with its answer.
CO[C@H]1O[C@H](CO)[C@@H](OCc2ccccc2)[C@H](OCc2ccccc2)[C@H]1OCc1ccccc1
> 500 µM
CC#CCO[C@@H]1O[C@@H]2CO[C@@H](c3ccccc3)O[C@H]2[C@H](OCc2ccccc2)[C@H]1OCc1ccccc1
> 500 µM
CC(=O)OC[C@H]1OC(OCc2ccccc2)[C@H](OCc2ccccc2)[C@@H](OCc2ccccc2)[C@@H]1OCc1ccccc1 (stereo not given in full)
357 µM
C#CCO[C@@H]1O[C@@H]2CO[C@@H](c3ccccc3)O[C@H]2[C@H](OCc2ccccc2)[C@H]1OCc1ccccc1
> 500 µM
CC#CCOC1O[C@@H]2CO[C@@H](c3ccccc3)O[C@H]2[C@H](OCc2ccccc2)[C@H]1OCc1ccccc1 (stereo not given in full)
> 500 µM
CC#CCO[C@H]1O[C@H](COCc2ccccc2)[C@@H](OCc2ccccc2)[C@H](OCc2ccccc2)[C@H]1OCc1ccccc1
> 500 µM
COC[C@H]1OC(OCc2ccccc2)[C@H](OCc2ccccc2)[C@@H](OCc2ccccc2)[C@@H]1OCc1ccccc1 (stereo not given in full)
435 µM
CC#CCOC1O[C@H](COC(C)=O)[C@@H](OCc2ccccc2)[C@H](OCc2ccccc2)[C@H]1OCc1ccccc1 (stereo not given in full)
400 µM
CC#CCO[C@H]1O[C@@H]2CO[C@@H](c3ccccc3)O[C@H]2[C@H](OCc2ccccc2)[C@H]1OCc1ccccc1
> 500 µM
C#CCO[C@@H]1O[C@H](COCc2ccccc2)[C@@H](OCc2ccccc2)[C@H](OCc2ccccc2)[C@H]1OCc1ccccc1
> 500 µM

**Q:** # get_value(readout= IC50, system= Mushroom tyrosinase (Agaricus bisporus, UniProt O42713+Q00024+C7FF04+C7FF05)) for C#CCCCOC1O[C@H](COC)[C@@H](OCc2ccccc2)[C@H](OCc2ccccc2)[C@H]1OCc1ccccc1 (stereo not given in full)
**A:** > 500 µM

**Q:** # query: IC50 | item C#CCOC1O[C@H](COC)[C@@H](OCc2ccccc2)[C@H](OCc2ccccc2)[C@H]1OCc1ccccc1 (stereo not given in full) | system: Mushroom tyrosinase (Agaricus bisporus, UniProt O42713+Q00024+C7FF04+C7FF05)
**A:** > 500 µM

**Q:** API: value(readout= IC50, system= Mushroom tyrosinase (Agaricus bisporus, UniProt O42713+Q00024+C7FF04+C7FF05), query= C#CCCOC1O[C@@H]2CO[C@@H](c3ccccc3)O[C@H]2[C@H](OCc2ccccc2)[C@H]1OCc1ccccc1 (stereo not given in full) )
**A:** 257 µM

**Q:** Param readout = IC50; param system = Mushroom tyrosinase (Agaricus bisporus, UniProt O42713+Q00024+C7FF04+C7FF05); param query = C#CCCCOC1O[C@H](COC(C)=O)[C@@H](OCc2ccccc2)[C@H](OCc2ccccc2)[C@H]1OCc1ccccc1 (stereo not given in full) ; response: value
**A:** > 500 µM

**Q:** Param readout = IC50; param system = Mushroom tyrosinase (Agaricus bisporus, UniProt O42713+Q00024+C7FF04+C7FF05); param query = C#CCOC[C@H]1OC(OCc2ccccc2)[C@H](OCc2ccccc2)[C@@H](OCc2ccccc2)[C@@H]1OCc1ccccc1 (stereo not given in full) ; response: value
**A:** > 500 µM

---

A collection of molecules and their measured IC50
# TESTED ON: Mushroom tyrosinase (Agaricus bisporus, UniProt O42713+Q00024+C7FF04+C7FF05)

C#CCCOC1O[C@H](CO)[C@@H](OCc2ccccc2)[C@H](OCc2ccccc2)[C@H]1OCc1ccccc1 (stereo partly specified)
> 500 µM
C#CCO[C@@H]1O[C@@H]2CO[C@@H](c3ccccc3)O[C@H]2[C@H](OCc2ccccc2)[C@H]1OCc1ccccc1
> 500 µM
C#CCOC1O[C@H](CO)[C@@H](OCc2ccccc2)[C@H](OCc2ccccc2)[C@H]1OCc1ccccc1 (stereo partly specified)
> 500 µM
CC#CCO[C@H]1O[C@H](COCc2ccccc2)[C@@H](OCc2ccccc2)[C@H](OCc2ccccc2)[C@H]1OCc1ccccc1
321 µM
C#CCCOC1O[C@H](COC)[C@@H](OCc2ccccc2)[C@H](OCc2ccccc2)[C@H]1OCc1ccccc1 (stereo partly specified)
> 500 µM
C#CCCCOC1O[C@H](COC)[C@@H](OCc2ccccc2)[C@H](OCc2ccccc2)[C@H]1OCc1ccccc1 (stereo partly specified)
> 500 µM
C#CCO[C@H]1O[C@H](COCc2ccccc2)[C@@H](OCc2ccccc2)[C@H](OCc2ccccc2)[C@H]1OCc1ccccc1
> 500 µM
CC#CCOC1O[C@H](CO)[C@@H](OCc2ccccc2)[C@H](OCc2ccccc2)[C@H]1OCc1ccccc1 (stereo partly specified)
> 500 µM
OC[C@H]1OC(OCc2ccccc2)[C@H](OCc2ccccc2)[C@@H](OCc2ccccc2)[C@@H]1OCc1ccccc1 (stereo partly specified)
> 500 µM
C#CCOC1O[C@@H]2CO[C@@H](c3ccccc3)O[C@H]2[C@H](OCc2ccccc2)[C@H]1OCc1ccccc1 (stereo partly specified)
> 500 µM

**Q:** What reported IC50 corresponds to C#CCCCOC1O[C@H](COCc2ccccc2)[C@@H](OCc2ccccc2)[C@H](OCc2ccccc2)[C@H]1OCc1ccccc1 (stereo partly specified) on Mushroom tyrosinase (Agaricus bisporus, UniProt O42713+Q00024+C7FF04+C7FF05)?
**A:** 105 µM

**Q:** Query for Mushroom tyrosinase (Agaricus bisporus, UniProt O42713+Q00024+C7FF04+C7FF05): what IC50 does the record show for C#CCCOC1O[C@H](COCc2ccccc2)[C@@H](OCc2ccccc2)[C@H](OCc2ccccc2)[C@H]1OCc1ccccc1 (stereo partly specified) ?
**A:** 150 µM

**Q:** Request body: readout IC50, system Mushroom tyrosinase (Agaricus bisporus, UniProt O42713+Q00024+C7FF04+C7FF05), query "C#CCOC[C@H]1O[C@H](OC)[C@H](OCc2ccccc2)[C@@H](OCc2ccccc2)[C@@H]1OCc1ccccc1" . Return the value.
**A:** > 500 µM

**Q:** API: value(readout= IC50, system= Mushroom tyrosinase (Agaricus bisporus, UniProt O42713+Q00024+C7FF04+C7FF05), query= C#CCOC1O[C@@H]2CO[C@@H](c3ccccc3)O[C@H]2[C@H](O)[C@H]1O (stereo partly specified) )
**A:** > 500 µM

**Q:** What IC50 appears in the records for this molecule with Mushroom tyrosinase (Agaricus bisporus, UniProt O42713+Q00024+C7FF04+C7FF05)? C#CCOC[C@H]1OC(OCc2ccccc2)[C@H](OCc2ccccc2)[C@@H](OCc2ccccc2)[C@@H]1OCc1ccccc1 (stereo partly specified)
**A:** 205 µM

**Q:** Missing value: IC50, Mushroom tyrosinase (Agaricus bisporus, UniProt O42713+Q00024+C7FF04+C7FF05), entry CC#CCOC[C@H]1OC(OCC#CC)[C@H](OCc2ccccc2)[C@@H](OCc2ccccc2)[C@@H]1OCc1ccccc1 (stereo partly specified) . Fill in?
**A:** 72 µM

**Q:** Provide value of IC50 for this record tested with Mushroom tyrosinase (Agaricus bisporus, UniProt O42713+Q00024+C7FF04+C7FF05): CC#CCOC1O[C@@H]2CO[C@@H](c3ccccc3)O[C@H]2[C@H](O)[C@H]1O (stereo partly specified)
**A:** > 500 µM
